- experimental details: logP
- Format: physicochemical
experimental endpoint: logP
Write the number on its own, no unit after it.

Quick check: logP of Cc1nn(C)c(F)c1C(=S)N(C1CC1)C(C)C1CCCc2ccccc21 (centres unmarked) [I.3] ?
4.39

Now the molecule CC(N(C(=O)c1cn(C)nc1C(F)F)C1CC1)C1(O)CCCc2ccccc21 (centres unmarked) [I.10]
2.94
